# testedOn: serotonin (5-HT) transport (Rattus norvegicus, UniProt P31652)
# Sequence (P31652 whole entry): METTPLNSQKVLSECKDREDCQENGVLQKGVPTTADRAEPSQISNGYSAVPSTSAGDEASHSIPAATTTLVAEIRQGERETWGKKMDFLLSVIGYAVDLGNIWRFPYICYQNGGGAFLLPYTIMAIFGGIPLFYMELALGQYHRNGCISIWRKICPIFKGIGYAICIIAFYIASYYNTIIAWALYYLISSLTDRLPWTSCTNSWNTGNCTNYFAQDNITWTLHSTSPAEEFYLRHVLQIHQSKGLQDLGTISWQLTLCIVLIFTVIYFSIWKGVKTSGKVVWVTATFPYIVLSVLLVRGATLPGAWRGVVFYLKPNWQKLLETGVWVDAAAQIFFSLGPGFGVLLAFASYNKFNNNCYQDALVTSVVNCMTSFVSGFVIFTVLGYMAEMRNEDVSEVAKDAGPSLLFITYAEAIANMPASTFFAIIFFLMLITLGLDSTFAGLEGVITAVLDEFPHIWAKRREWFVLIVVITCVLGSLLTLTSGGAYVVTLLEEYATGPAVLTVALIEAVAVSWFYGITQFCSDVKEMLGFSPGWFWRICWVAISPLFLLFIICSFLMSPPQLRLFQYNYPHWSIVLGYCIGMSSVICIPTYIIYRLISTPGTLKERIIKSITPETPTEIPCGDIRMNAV
# testProtocol: Inhibition of [3H]5-HT uptake in rat whole brain synaptosomes
# Assay type: biochemical
# statedConditions: read-out: Uptake Inhibition % at 500 nM 5-HT
resultType: inhibition at 0.5 µM

Some entries whose results are on file:
[
  {
    "compound": "CNC1CCC2CC21c1ccc(Cl)c(Cl)c1 (stereo not drawn)",
    "inhibition at 0.5 µM": "15%"
  },
  {
    "compound": "Cc1ccc(C23CC(N)CC2C3)cc1 (stereo not drawn) [1-p-tolylbicyclo[3.1.0]hexan-3-amine]",
    "inhibition at 0.5 µM": "21%"
  },
  {
    "compound": "CN(C)C1CCC2(c3ccc4ccccc4c3)CC12 (stereo not drawn)",
    "inhibition at 0.5 µM": "96%"
  },
  {
    "compound": "CN(C)C1CCC2(c3ccc(Cl)c(Cl)c3)CC12 (stereo not drawn)",
    "inhibition at 0.5 µM": "95%"
  },
  {
    "compound": "CN(C)C1CCC2(c3cccc4ccccc34)CC12 (stereo not drawn)",
    "inhibition at 0.5 µM": "76%"
  },
  {
    "compound": "CNC1CC2CC2(c2ccc(C)cc2)C1 (stereo not drawn)",
    "inhibition at 0.5 µM": "69%"
  },
  {
    "compound": "Cc1ccc(C23CC2CCC3N)cc1 (stereo not drawn) [1-p-tolylbicyclo[3.1.0]hexan-2-amine]",
    "inhibition at 0.5 µM": "20%"
  },
  {
    "compound": "CNC1CCC2(c3ccc4ccccc4c3)CC12 (stereo not drawn)",
    "inhibition at 0.5 µM": "90%"
  }
]

Tell us which inhibition at 0.5 µM value is on record for Cc1ccc(C23CC2CCC3N(C)C)cc1 (stereo not drawn)
0%

Tell us which inhibition at 0.5 µM value is on record for CNC1CCC2(c3ccc(C)cc3)CC12 (stereo not drawn)
37%

====

# testedOn: dopamine (DA) transport (Rattus norvegicus)
# testProtocol: Inhibition of [3H]DA uptake in rat striatum synaptosomes
# Type: biochemical
# Design: synaptosomal preparations were made from either whole brain (5-HT), striatum (DA) or hypothalamus (NE); from tissue; host or cells: rat striatum synaptosomes
# statedConditions: read-out: Uptake Inhibition % at 500 nM DA
# Sequence (P23977 whole entry): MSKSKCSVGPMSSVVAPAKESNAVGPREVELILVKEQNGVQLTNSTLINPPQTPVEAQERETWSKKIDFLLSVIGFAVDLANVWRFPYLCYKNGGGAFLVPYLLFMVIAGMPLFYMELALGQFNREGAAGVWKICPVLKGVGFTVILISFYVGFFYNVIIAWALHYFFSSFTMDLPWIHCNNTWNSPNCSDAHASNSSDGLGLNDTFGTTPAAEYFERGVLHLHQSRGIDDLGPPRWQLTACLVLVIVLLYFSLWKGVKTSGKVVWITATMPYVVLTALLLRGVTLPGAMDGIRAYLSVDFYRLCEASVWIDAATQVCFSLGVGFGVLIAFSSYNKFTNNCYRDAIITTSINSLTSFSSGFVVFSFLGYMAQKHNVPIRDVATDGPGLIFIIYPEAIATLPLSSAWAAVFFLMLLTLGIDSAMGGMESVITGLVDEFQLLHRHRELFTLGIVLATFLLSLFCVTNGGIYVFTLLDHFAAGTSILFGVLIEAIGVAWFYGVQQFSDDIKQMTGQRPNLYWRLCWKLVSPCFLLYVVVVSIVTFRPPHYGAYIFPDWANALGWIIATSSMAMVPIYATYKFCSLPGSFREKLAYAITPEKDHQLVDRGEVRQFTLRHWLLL
compounds and their reported inhibition at 0.5 µM
Quick note: give the figure in %, leave out the unit.

Some entries whose results are on file:
[
  {
    "compound": "CNC1CC2CC2(c2ccc(C)cc2)C1 (stereo not drawn)",
    "unitString": "%",
    "inhibition at 0.5 µM": 43
  },
  {
    "compound": "NC1C[C@H]2C[C@@]2(c2cccc3ccccc23)C1 (stereo partly drawn)",
    "unitString": "%",
    "inhibition at 0.5 µM": 53
  },
  {
    "compound": "CNC1CCC2(c3ccc(Cl)c(Cl)c3)CC12 (stereo not drawn)",
    "unitString": "%",
    "inhibition at 0.5 µM": 56
  },
  {
    "compound": "CN(C)C1CCC2CC21c1ccc(Cl)c(Cl)c1 (stereo not drawn)",
    "unitString": "%",
    "inhibition at 0.5 µM": 99
  },
  {
    "compound": "CN(C)C1CCC2(c3cccc4ccccc34)CC12 (stereo not drawn)",
    "unitString": "%",
    "inhibition at 0.5 µM": 15
  },
  {
    "compound": "NC1CC2CC2(c2ccc(Cl)c(Cl)c2)C1 (stereo not drawn)",
    "unitString": "%",
    "inhibition at 0.5 µM": 77
  },
  {
    "compound": "CNC1CCC2(c3cccc4ccccc34)CC12 (stereo not drawn)",
    "unitString": "%",
    "inhibition at 0.5 µM": 29
  },
  {
    "compound": "Cc1ccc(C23CC(N(C)C)CC2C3)cc1 (stereo not drawn)",
    "unitString": "%",
    "inhibition at 0.5 µM": 0
  }
]

Tell us which inhibition at 0.5 µM value is on record for NC1C[C@@H]2C[C@]2(c2ccc(Cl)c(Cl)c2)C1 (stereo partly drawn)
83

Tell us which inhibition at 0.5 µM value is on record for Cc1ccc(C23CC(N)CC2C3)cc1 (stereo not drawn) [1-p-tolylbicyclo[3.1.0]hexan-3-amine]
44

Tell us which inhibition at 0.5 µM value is on record for Cc1ccc(C23CC2CCC3N(C)C)cc1 (stereo not drawn)
70

Tell us which inhibition at 0.5 µM value is on record for Cc1ccc(C23CC2CCC3N)cc1 (stereo not drawn) [1-p-tolylbicyclo[3.1.0]hexan-2-amine]
18

====

# testedOn: norepinephrine (NE) transport (Rattus norvegicus)
# Construct: synaptosomal preparations were made from either whole brain (5-HT), striatum (DA) or hypothalamus (NE); from tissue; host or cells: rat hypothalamus synaptosomes
# Sequence (Q63380 1-617): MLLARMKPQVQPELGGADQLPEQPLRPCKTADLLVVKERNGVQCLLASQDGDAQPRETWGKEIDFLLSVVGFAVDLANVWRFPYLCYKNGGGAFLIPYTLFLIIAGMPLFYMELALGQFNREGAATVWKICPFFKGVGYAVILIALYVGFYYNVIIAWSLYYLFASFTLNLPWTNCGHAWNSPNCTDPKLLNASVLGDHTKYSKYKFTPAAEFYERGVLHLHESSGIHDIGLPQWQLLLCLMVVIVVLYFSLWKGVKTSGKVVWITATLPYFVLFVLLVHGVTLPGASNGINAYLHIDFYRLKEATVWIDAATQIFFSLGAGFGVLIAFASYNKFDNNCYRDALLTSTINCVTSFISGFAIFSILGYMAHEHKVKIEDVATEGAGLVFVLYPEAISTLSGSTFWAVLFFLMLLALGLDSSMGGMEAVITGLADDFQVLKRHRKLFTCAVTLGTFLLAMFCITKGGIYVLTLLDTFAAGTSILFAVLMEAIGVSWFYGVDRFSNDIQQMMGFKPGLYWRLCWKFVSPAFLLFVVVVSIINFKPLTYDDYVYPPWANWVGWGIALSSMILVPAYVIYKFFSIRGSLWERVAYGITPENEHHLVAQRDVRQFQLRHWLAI
# testProtocol: Inhibition of [3H]NE uptake in rat hypothalamus synaptosomes
# Type: biochemical
molecules and their reported IC50
Quick note: give the figure in nM, leave out the unit.

Supply IC50 measured with norepinephrine (NE) transport (Rattus norvegicus) for NC1C[C@H]2C[C@@]2(c2cccc3ccccc23)C1 (some centres unmarked) .
282

Supply IC50 measured with norepinephrine (NE) transport (Rattus norvegicus) for NC1CC2CC2(c2ccc(Cl)c(Cl)c2)C1 (centres unmarked) .
126

====

# testedOn: dopamine (DA) transport (Rattus norvegicus)
# testProtocol: Inhibition of [3H]DA uptake in rat striatum synaptosomes
# Type: biochemical
# Set-up: synaptosomal preparations were made from either whole brain (5-HT), striatum (DA) or hypothalamus (NE); from tissue; host or cells: rat striatum synaptosomes
# statedConditions: read-out: Uptake Inhibition % at 500 nM DA
# Protocol: The effects of arylbicyclo[3.1.0]hexylamines of the invention for inhibiting transport of norepinephrine (NE) and/or dopamine (DA) and/or serotonin (5-HT) were evaluated using preparations of synaptosomes from different regions of the rat brain according to previously-reported techniques. […]
compounds and their reported inhibition at 0.5 µM
# output: numeric value plus its unit

Some entries whose results are on file:
[
  {
    "compound": "CN(C)C1CCC2(c3ccc4ccccc4c3)CC12 (stereo not drawn)",
    "inhibition at 0.5 µM": "42%"
  },
  {
    "compound": "Cc1ccc(C23CCC(N(C)C)C2C3)cc1 (stereo not drawn)",
    "inhibition at 0.5 µM": "55%"
  },
  {
    "compound": "CNC1CCC2CC21c1ccc(C)cc1 (stereo not drawn)",
    "inhibition at 0.5 µM": "33%"
  },
  {
    "compound": "Cc1ccc(C23CCC(N)C2C3)cc1 (stereo not drawn)",
    "inhibition at 0.5 µM": "31%"
  },
  {
    "compound": "NC1CCC2CC12c1ccc(Cl)c(Cl)c1 (stereo not drawn)",
    "inhibition at 0.5 µM": "86%"
  },
  {
    "compound": "CNC1CCC2(c3ccc(C)cc3)CC12 (stereo not drawn)",
    "inhibition at 0.5 µM": "63%"
  }
]

Tell us which inhibition at 0.5 µM value is on record for CNC1CCC2(c3ccc4ccccc4c3)CC12 (stereo not drawn)
45%

Tell us which inhibition at 0.5 µM value is on record for CNC1CCC2CC21c1ccc(Cl)c(Cl)c1 (stereo not drawn)
101%

Tell us which inhibition at 0.5 µM value is on record for CN(C)C1CCC2(c3ccc(Cl)c(Cl)c3)CC12 (stereo not drawn)
34%

====

# testedOn: dopamine (DA) transport (Rattus norvegicus, UniProt P23977)
# testProtocol: Inhibition of [3H]DA uptake in rat striatum synaptosomes
# Format: biochemical
# Sequence (P23977 whole entry, looked up): as the sequence (P23977 whole entry) above
resultType: IC50
# output: numeric value plus its unit

Tell us which IC50 value is on record for NC1C[C@H]2C[C@@]2(c2ccc(Cl)c(Cl)c2)C1 (stereo partly shown)
60 nM

====

# testedOn: norepinephrine (NE) transport (Rattus norvegicus)
# Construct: synaptosomal preparations were made from either whole brain (5-HT), striatum (DA) or hypothalamus (NE); from tissue; host or cells: rat hypothalamus synaptosomes
# testProtocol: Inhibition of [3H]NE uptake in rat hypothalamus synaptosomes
# Type: biochemical
# statedConditions: read-out: Uptake Inhibition % at 500 nM NE
Mark true (1) for reported inhibition at 0.5 µM of 50% or greater; mark false (0) for anything smaller.

[
  {
    "molecule": "Cc1ccc(C23CC2CCC3N(C)C)cc1 (stereo not drawn)",
    "label": "true (1)"
  },
  {
    "molecule": "NC1C[C@@H]2C[C@]2(c2ccc(Cl)c(Cl)c2)C1 (stereo partly drawn)",
    "label": "true (1)"
  },
  {
    "molecule": "Cc1ccc(C23CC(N)CC2C3)cc1 (stereo not drawn) [1-p-tolylbicyclo[3.1.0]hexan-3-amine]",
    "label": "false (0)"
  },
  {
    "molecule": "NC1CC2CC2(c2ccc(Cl)c(Cl)c2)C1 (stereo not drawn)",
    "label": "true (1)"
  },
  {
    "molecule": "CNC1CCC2(c3ccc(Cl)c(Cl)c3)CC12 (stereo not drawn)",
    "label": "true (1)"
  }
]

In plain terms: is recorded inhibition at 0.5 µM at least 50% for CN(C)C1CCC2(c3ccc(Cl)c(Cl)c3)CC12 (stereo not drawn) ?
false (0)
